IC50 overview
- System: L 1210 leukemia cells
- procedure text: Colony formation of L 1210 leukemia cells in soft agar (stem cell assay)
- Assay type: cell-based
- protocol conditions: Mus musculus, L1210; L 1210 colony formation in soft agar, 1 hour incubation, 7 days; read-out: Stem cell assay IC50, Incubation: 1 hour

compound	IC50 (µg/mL)
O=C1c2ccccc2C(=O)c2c(OCC3CO3)ccc(OCC3CO3)c21 (stereo not shown) [Example 4]	0.004
O=C1c2cccc(OCC3CO3)c2C(=O)c2c(OCC3CO3)cccc21 (stereo not shown) [Example 8]	0.03
O=C1c2ccccc2C(=O)c2c(OCC3CO3)ccc(O)c21 (stereo not shown) [Example 3]	0.066
O=C1c2ccc(OCC3CO3)cc2C(=O)c2ccc(OCC3CO3)cc21 (stereo not shown) [Example 5]	0.0083

====

- procedure text: Determination of acute toxicity, intraperitoneal
- protocol conditions: mouse, in vivo, ip, NMRI mice, day 14, Litchfield Wilcoxon

compound	endpoint unit	LD50 at 336 h
O=C1c2ccc(OCC3CO3)cc2C(=O)c2ccc(OCC3CO3)cc21 (centres unmarked)	mg/kg	200
COc1cccc2c1C(=O)c1c(O)c3c(c(O)c1C2=O)C[C@@](O)(C(=O)CO)C[C@@H]3O[C@H]1C[C@H](N)[C@H](O)[C@H](C)O1 [Adriamycin, reference compound]	mg/kg	14
